assay_protocol: Human HepG2 cell viability assay in 384 well format
Type: toxicity, cell-based
Parameters: dose 125 nL, time 70.5 hour; concentration not given beside the values
protocol_conditions: HepG2 cells, read-out: Inhibition
Give measured cytotoxicity at 70.5 h for each item. Keep answers brief.
Report field: quantity (unit follows the number).

Solved cases (3 shown):
# molecule, cytotoxicity at 70.5 h
rows = [
    ("CCC1CN(c2nnc(C)c(C)c2C#N)CCO1 (stereo unspecified)", "8.71%"),
    ("CCCNC(=O)Cn1cc(C#N)c(=O)c2cc(Br)ccc21", "-8.09%"),
    ("NC1(c2nc(-c3cccs3)cc(=O)[nH]2)CCCCC1", "7.44%"),
]

Batch: cytotoxicity at 70.5 h for all items listed.
1. CC(C)(C)C(O)CN1CCN(CC(=O)NC(C2CC2)C2CC2)CC1 (stereo unspecified)
2. Cc1ccc2nc(CN3CCC(O)(Cn4ccnc4)CC3)cc(O)c2c1
3. CC(=O)N1CCCC(C(=O)N2Cc3nc(C)n(C)c(=O)c3C2)C1 (stereo unspecified)

["2.37%", "-7.59%", "-3.08%"]
